- measurement_protocol: physchem
- test_conditions: ethanol/acetate buffer, pH 4, organic solvent or mixture, Solubility in parenteral vehicle, vehicle 3: Ethanol 10 %v/v, 0.05M Acetate buffer pH 4.0 qs
reported_property: solubility (µg/mL)
Entry rule: numbers only, all in µg/mL.

Query: Give its solubility value. Item: `COc1ccc(C[C@H]2NC(=O)/C=C/C[C@@H]([C@H](C)[C@@H](OC(=O)CN)[C@@H](Cl)c3ccccc3)OC(=O)[C@H](CC(C)C)OC(=O)C(C)(C)CNC2=O)cc1Cl`
Result: 1290

* * *

- measurement_protocol: physchem
- test_conditions: ethanol/propylene glycol/acetate buffer, pH 4, organic solvent or mixture, Solubility in parenteral vehicle, vehicle 6: Ethanol 10, Propylene Glycol 25 %v/v, 0.05 M Acetate buffer pH 4.0 qs
reported_property: solubility (mg/mL)
Entry rule: numbers only, all in mg/mL.

Query: Give its solubility value. Item: COc1ccc(C[C@H]2NC(=O)/C=C/C[C@@H]([C@H](C)[C@@H](OC(=O)CN)[C@@H](Cl)c3ccccc3)OC(=O)[C@H](CC(C)C)OC(=O)C(C)(C)CNC2=O)cc1Cl [Compound 12]
Result: 10.3

* * *

- System: GC3 human colon carcinoma cells
- measurement_protocol: cells
- Format: cell-based
- test_conditions: Homo sapiens, Colon carcinoma cell; 72 hours incubation, MTT
reported_property: IC50 (nM)
Entry rule: numbers only, all in nM.

Query: Give its IC50 value. Item: `COc1ccc(C[C@H]2NC(=O)/C=C/C[C@@H]([C@H](C)[C@@H](OC(=O)CN)[C@@H](Cl)c3ccccc3)OC(=O)[C@H](CC(C)C)OC(=O)C(C)(C)CNC2=O)cc1Cl`
Result: 0.1

* * *

- System: GC3 human colon carcinoma cells
- measurement_protocol: cells
- Format: cell-based
- test_conditions: 72 hours incubation, MTT
Counter-ions that a name gives are not always drawn.
reported_property: IC50

Query: Give its IC50 value. Item: COc1ccc(CC2NC(=O)C=CCC(C(C)C(OC(=O)CCN)C(Cl)c3ccccc3)OC(=O)C(CC(C)C)OC(=O)C(C)(C)CNC2=O)cc1Cl (stereo not drawn) [Compound 14, hydrochloride salt]
Result: 21 nM

Query: Give its IC50 value. Item: COc1ccc(CC2NC(=O)C=CCC(C(C)C(OC(=O)C(C)N)C(Cl)c3ccccc3)OC(=O)C(CC(C)C)OC(=O)C(C)(C)CNC2=O)cc1Cl (stereo not drawn) [Compound 18, hydrochloride salt]
Result: 2.6 nM

Further cases:
Query: Give its IC50 value. Item: COc1ccc(C[C@H]2NC(=O)/C=C/C[C@@H]([C@H](C)[C@@H](OC(=O)[C@@H](N)CCCCN)[C@@H](Cl)c3ccccc3)OC(=O)[C@H](CC(C)C)OC(=O)C(C)(C)CNC2=O)cc1Cl [Compound 22, di-hydrochloride salt]
Result: 7.2 nM

* * *

- measurement_protocol: physchem
- test_conditions: emulphor el719 in acetate buffer, aqueous buffer, Comparative solubilities, excipient 4: Emulphor EL719 1 (w/v), volume adjusted 0.05M acetate buffer
- Description: Table 4. Solubility of cryptophycin glycinate 12 in various parenteral vehicles.
reported_property: solubility (µg/mL)
Entry rule: numbers only, all in µg/mL.

Query: Give its solubility value. Item: `COc1ccc(C[C@H]2NC(=O)/C=C/C[C@@H]([C@H](C)[C@@H](OC(=O)CN)[C@@H](Cl)c3ccccc3)OC(=O)[C@H](CC(C)C)OC(=O)C(C)(C)CNC2=O)cc1Cl`
Result: 1500
